System: 786-0 renal
Assay: NCI-60 one-dose screen, 48 h
Conditions: 10 µM unless noted
Compounds without any hit were thinned out: in the full panel of roughly 83,000, 20% have a hit. Calls of active or inactive are those of the source. The calls were made as follows: active = growth percent below 10; inactive = the rest.
Possible outcomes: yes for active, no for inactive

compound: CC(C)(C)c1cc(-c2nc3ccc(N4CCN(S(C)(=O)=O)CC4)cc3[nH]2)cc(C(C)(C)C)c1O
group: no
--
compound: Clc1ccc(CNc2c3ccccc3nc3ccccc23)cc1
group: no
--
compound: OCc1cccc(-c2ccc3ncc(-c4nc(NC5CC5)ncc4F)n3c2)c1
group: yes
--
compound: CN(C)CCNc1nc2c3cc(Cl)ccc3nn2c2ccccc12
group: no
--
compound: C#CCn1cnc2c(Nc3cccc(NC(=O)C=C)c3)ncnc21
group: no
--
compound: CNc1nc(S(=O)c2ccc(C#N)cc2)nc2ccccc12 (configuration not stated)
group: no
--
compound: CC(=O)OC[C@]12CCC(C)(C)C[C@H]1[C@@]1(O)[C@H](O)C[C@@H]3[C@@]4(C)CCCNC(C)(C)[C@@H]4CC[C@@]3(C)[C@]1(C)CC2
group: no

====

System: EKVX NSCLC
Assay: NCI-60 one-dose screen, 48 h
Settings: 10 µM unless noted
The panel holds about 83,000 compounds, 20% with a hit somewhere; the sample as a whole holds those more often. Activity calls are given as the source filed them. Rule for the calls: active = growth percent below 10; inactive = the rest.
Possible outcomes: t (active), f (inactive)

molecule: CCOC(=O)C(=Cc1cccc(Br)c1)C(=O)OCC
group: f

molecule: CC1Cc2c(Cl)ncnc2N(C)c2ccc(F)cc21 (centres undefined)
group: f

molecule: Cc1ccc2c3c(c(=O)[nH]c2c1)C1(C(C#N)=C(N)O3)c2cc(Br)ccc2-c2ccc(Br)cc21
group: t

molecule: O=C1CC(N2C(=O)/C(=C/C(Cl)=C\c3ccc([N+](=O)[O-])cc3)SC2=S)C(=O)N1c1ccc(Cl)cc1 (centres undefined)
group: f

====

Tested on: PC-3 prostate
Test: NCI-60 one-dose screen, 48 h
Conditions: 10 µM unless noted
This is part of a sample that, as a whole, favours compounds with a hit. Of some 83,000 tested, about 20% had one in any assay. The source made the active and inactive calls. How the source made its calls: active means growth percent below 10; inactive means the rest.
Possible outcomes: 1 for active, -1 for inactive

molecule: C=CCc1c2c(c(OC)c3ccoc13)C(=O)/C(=C/c1ccccc1OC)O2
group: -1
--
molecule: CN([O-])c1nc(N(C)[O-])nc(N2CCOCC2)n1.CN([O-])c1nc(N(C)[OH2+])nc(N2CCOCC2)n1.[Fe+3]
group: -1
--
molecule: O=Cc1ccc([N+](=O)[O-])s1
group: -1
--
molecule: COc1ccc(OC)c(C(=O)/C=C/c2cc3c(c(OC)c2OC)OCO3)c1
group: -1
--
molecule: COc1ccc2c(c1)c(-c1noc(C(=O)c3cn(C)c4ccc(Br)cc34)n1)cn2C
group: -1
--
molecule: COc1ccc(/C=C2\COc3ccc(O)cc3C2=O)c(OC)c1OC
group: -1
--
molecule: N#CC1=C(c2ccc(Cl)cc2)Nc2c(c(-c3ccc(Cl)cc3)nn2-c2ccccc2)C12C(=O)Nc1ccc(Cl)cc12 (stereo not given)
group: -1
--
molecule: Cc1ccc(-c2nc(N3CCNCC3)c3oc(-c4ccccc4)nc3n2)cc1
group: 1
--
molecule: Oc1c(Cl)cc(Cl)c2ccc(Cn3cc(-c4ccc(C(F)(F)F)cc4)nn3)nc12
group: -1
--
molecule: CCOC(=O)c1nc(Nc2ccc(NC(=O)Nc3ccc(F)cc3)cc2)c2ccccc2n1
group: -1
--
molecule: CCn1cc(C(=O)N/N=C/c2cccs2)c(=O)c2cc(F)c(N3CCNC(C)C3)c(F)c21 (stereo not given)
group: -1
--
molecule: O=C1/C(=C\c2cn(-c3ccccc3)nc2-c2ccc(-c3cccs3)cc2)CCc2ccccc21
group: -1
--
molecule: CC(C)(C)n1cc(-c2ccnc(NCCNS(=O)(=O)c3cccc4ccccc34)c2)c(-c2cccc(F)c2)n1
group: 1
--
molecule: O=C1/C(=C/c2ccc(Cl)cc2)COc2ccc(O)cc21
group: -1
--
molecule: COc1ccc2nc(NC(=O)CSc3nnc4n3S(=O)(=O)c3ccccc3N4C)sc2c1
group: -1
--
molecule: Nc1c(C(=O)Nc2ccccc2Cl)sc2nc3c(cc12)C(O)CCC3 (stereo not given)
group: -1
--
molecule: Oc1c(Cl)cc(Cl)c2ccc(Cn3cc(-c4cc(C(F)(F)F)cc(C(F)(F)F)c4)nn3)nc12
group: -1
--
molecule: COc1ccc2[nH]cc(-c3nc(-c4c[nH]c5ccncc45)cs3)c2c1
group: -1
--
molecule: O=C1c2c(c3c4ccc(Br)cc4oc3c3[nH]c4ccccc4c23)C(=O)N1O
group: -1
--
molecule: COc1ccc(N2CCC(=O)NC2=S)cc1
group: -1
--
molecule: CC(C)(C)c1cc(-c2nc3ccc(N4CCN(S(C)(=O)=O)CC4)cc3[nH]2)cc(C(C)(C)C)c1O
group: -1
--
molecule: OCc1cccc(-c2ccc3ncc(-c4nc(NC5CC5)ncc4F)n3c2)c1
group: 1
--
molecule: COc1ccc(/C=C2\COc3ccc(O)c(O)c3C2=O)cc1
group: -1
--
molecule: C=CC(=O)NCc1ccc(Nc2nccc(-c3ccc(N4CCCC4)c(C#N)c3)n2)cc1
group: -1
--
molecule: Cc1c(-c2nc3ccc(F)cc3c(=O)[nH]2)c2ccccc2n1C
group: -1
--
molecule: CC(C)(C)n1cc(-c2ccnc(NCCCNS(=O)(=O)c3ccc(F)cc3)c2)c(-c2cccc(F)c2)n1
group: -1
--
molecule: O=C(CN1C(=O)CCC1=O)Nc1ncc(Cc2ccc(F)cc2)s1
group: -1
--
molecule: CO[C@H]1/C=C(/C)CCC[C@H](C)[C@H](O)[C@@H](C)C(=O)C(C)(C)[C@@H](O)CC(=O)O[C@@H]1/C(C)=C/c1csc(C)n1
group: -1
--
molecule: O=C(CCc1nnc(Cn2cnc3nc[nH]c3c2=O)o1)c1nc2ncccc2[nH]1
group: -1
--
molecule: Cc1oc(-c2ccc(Cl)cc2)nc1/C=C/C(=O)c1ccccc1
group: -1
--
molecule: CC12CCC3c4ccccc4CCC3(CO1)C2 (stereo not given)
group: -1
--
molecule: N#Cc1c(-c2ccc(Cl)cc2)nc(NN=Cc2cccc(O)c2)nc1N1CCOCC1
group: -1
--
molecule: O=[N+]([O-])c1ccc(-c2nc(N3CCOCC3)c3c4c(sc3n2)CCCC4)cc1
group: -1
--
molecule: O=S(=O)(Nc1cc(Br)c(O)c2ccccc12)c1ccc(F)cc1
group: -1
--
molecule: O=C(CI)NC1Oc2ccccc2-c2oc(=O)c(-c3ccccc3)cc21 (stereo not given)
group: 1
